- EXPERIMENTAL_TARGET: PARP (mixed cellular PARPs)
- MEASUREMENT_PROTOCOL: Inhibition of mixed PARPs from broken cell nuclei by broken nuclei assay
MEASURED_METRIC: IC50

{"MOLECULE_SMILES": "O=C(O)c1cccc2c(=O)[nH]ccc12", "MEASURED_RESULT": "< 13 µM"}

* * *

# log10 IC50 per record follows
- EXPERIMENTAL_TARGET: Poly [ADP-ribose] polymerase 2 (Mus musculus, UniProt O88554)
- Sequence (O88554 whole entry): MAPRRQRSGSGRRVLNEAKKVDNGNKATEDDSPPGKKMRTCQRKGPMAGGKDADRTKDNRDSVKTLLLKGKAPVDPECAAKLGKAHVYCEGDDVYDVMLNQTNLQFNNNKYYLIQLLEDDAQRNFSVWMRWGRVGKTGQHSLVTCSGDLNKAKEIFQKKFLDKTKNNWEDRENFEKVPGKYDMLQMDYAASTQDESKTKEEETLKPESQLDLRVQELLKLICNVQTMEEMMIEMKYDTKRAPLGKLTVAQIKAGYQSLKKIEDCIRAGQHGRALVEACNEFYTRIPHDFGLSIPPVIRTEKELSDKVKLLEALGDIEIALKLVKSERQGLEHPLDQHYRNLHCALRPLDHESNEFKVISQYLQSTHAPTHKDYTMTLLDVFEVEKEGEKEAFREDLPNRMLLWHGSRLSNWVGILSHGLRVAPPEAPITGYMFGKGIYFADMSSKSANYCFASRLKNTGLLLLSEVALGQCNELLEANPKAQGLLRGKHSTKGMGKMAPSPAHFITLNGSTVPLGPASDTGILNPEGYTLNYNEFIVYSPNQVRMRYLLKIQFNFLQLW
- MEASUREMENT_PROTOCOL: Inhibition of recombinant full length mouse PARP-2 after 10 mins using [3H]NAD+ by solution-phase assay
MEASURED_METRIC: log10 IC50 (log10 of the value in µM)

{"MOLECULE_SMILES": "O=C(Oc1cccc2c(=O)[nH]ccc12)c1ccccc1", "EXPERIMENTAL_TARGET": "Poly [ADP-ribose] polymerase 2 (Mus musculus, UniProt O88554)", "log10 IC50": 0.18}
{"MOLECULE_SMILES": "CC(C)(C)C(=O)Nc1cccc2c(=O)[nH]ccc12", "EXPERIMENTAL_TARGET": "Poly [ADP-ribose] polymerase 2 (Mus musculus, UniProt O88554)", "log10 IC50": 1.46}
{"MOLECULE_SMILES": "Cc1ccccc1C(=O)Nc1cccc2c(=O)[nH]ccc12", "EXPERIMENTAL_TARGET": "Poly [ADP-ribose] polymerase 2 (Mus musculus, UniProt O88554)", "log10 IC50": 0.75}
{"MOLECULE_SMILES": "O=C(Nc1cccc2c(=O)[nH]ccc12)c1ccc(I)cc1", "EXPERIMENTAL_TARGET": "Poly [ADP-ribose] polymerase 2 (Mus musculus, UniProt O88554)", "log10 IC50": 0.11}
{"MOLECULE_SMILES": "O=C(Nc1cccc2c(=O)[nH]ccc12)c1ccc([N+](=O)[O-])cc1", "EXPERIMENTAL_TARGET": "Poly [ADP-ribose] polymerase 2 (Mus musculus, UniProt O88554)", "log10 IC50": 0.20}
{"MOLECULE_SMILES": "O=c1[nH]c(CCCCN2CC=C(c3ccc(F)cc3)CC2)nc2c(Cl)cccc12", "EXPERIMENTAL_TARGET": "Poly [ADP-ribose] polymerase 2 (Mus musculus, UniProt O88554)", "log10 IC50": -0.30}
{"MOLECULE_SMILES": "O=C(O)/C=C/c1cccc2c(=O)[nH]ccc12", "EXPERIMENTAL_TARGET": "Poly [ADP-ribose] polymerase 2 (Mus musculus, UniProt O88554)", "log10 IC50": 0.67}
{"MOLECULE_SMILES": "O=C(O)CNc1cccc2c(=O)[nH]ccc12", "EXPERIMENTAL_TARGET": "Poly [ADP-ribose] polymerase 2 (Mus musculus, UniProt O88554)", "log10 IC50": -0.26}
{"MOLECULE_SMILES": "Nc1cccc2c(=O)n(CCC(=O)O)ccc12", "EXPERIMENTAL_TARGET": "Poly [ADP-ribose] polymerase 2 (Mus musculus, UniProt O88554)", "log10 IC50": 0.20}
{"MOLECULE_SMILES": "O=C(Nc1cccc2c(=O)[nH]ccc12)C1CCCCC1", "EXPERIMENTAL_TARGET": "Poly [ADP-ribose] polymerase 2 (Mus musculus, UniProt O88554)", "log10 IC50": 1.45}
{"MOLECULE_SMILES": "O=C(Nc1cccc2c(=O)[nH]ccc12)c1ccccc1I", "EXPERIMENTAL_TARGET": "Poly [ADP-ribose] polymerase 2 (Mus musculus, UniProt O88554)", "log10 IC50": 0.51}
{"MOLECULE_SMILES": "O=C(Nc1cccc2c(=O)[nH]ccc12)c1ccc(Cl)cc1", "EXPERIMENTAL_TARGET": "Poly [ADP-ribose] polymerase 2 (Mus musculus, UniProt O88554)", "log10 IC50": 0.59}
{"MOLECULE_SMILES": "O=C(O)CCc1cccc2c(=O)[nH]ccc12", "EXPERIMENTAL_TARGET": "Poly [ADP-ribose] polymerase 2 (Mus musculus, UniProt O88554)", "log10 IC50": 0.48}
{"MOLECULE_SMILES": "O=C(Nc1cccc2c(=O)[nH]ccc12)c1ccc(C(F)(F)F)cc1", "EXPERIMENTAL_TARGET": "Poly [ADP-ribose] polymerase 2 (Mus musculus, UniProt O88554)", "log10 IC50": 0.52}
{"MOLECULE_SMILES": "NC(=O)c1cccc2nc(-c3ccc(Cl)cc3)cnc12", "EXPERIMENTAL_TARGET": "Poly [ADP-ribose] polymerase 2 (Mus musculus, UniProt O88554)", "log10 IC50": -1.05}
{"MOLECULE_SMILES": "Cc1cc2c(NC(=O)c3ccccc3)cccc2c(=O)[nH]1", "EXPERIMENTAL_TARGET": "Poly [ADP-ribose] polymerase 2 (Mus musculus, UniProt O88554)", "log10 IC50": 0.80}
{"MOLECULE_SMILES": "Cc1ccc(C(=O)Nc2cccc3c(=O)[nH]ccc23)cc1", "EXPERIMENTAL_TARGET": "Poly [ADP-ribose] polymerase 2 (Mus musculus, UniProt O88554)", "log10 IC50": 0.81}
{"MOLECULE_SMILES": "O=C(Nc1cccc2c(=O)[nH]ccc12)c1ccc(F)cc1", "EXPERIMENTAL_TARGET": "Poly [ADP-ribose] polymerase 2 (Mus musculus, UniProt O88554)", "log10 IC50": 0.56}
{"MOLECULE_SMILES": "O=C(Nc1cccc2c(=O)[nH]ccc12)c1ccccc1", "EXPERIMENTAL_TARGET": "Poly [ADP-ribose] polymerase 2 (Mus musculus, UniProt O88554)", "log10 IC50": 0.18}
{"MOLECULE_SMILES": "O=C(Nc1cccc2c(=O)[nH]ccc12)c1cccs1", "EXPERIMENTAL_TARGET": "Poly [ADP-ribose] polymerase 2 (Mus musculus, UniProt O88554)", "log10 IC50": 0.85}
{"MOLECULE_SMILES": "O=C(Nc1cccc2c(=O)[nH]ccc12)C12CC3CC(CC(C3)C1)C2", "EXPERIMENTAL_TARGET": "Poly [ADP-ribose] polymerase 2 (Mus musculus, UniProt O88554)", "log10 IC50": 1.30}
